Provenance of the data: PubChem BioAssay (NCI)

testName: NCI Yeast Anticancer Drug Screen. Data for the rad50 strain (AID 155);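 also: 0% = growth of vehicle-only cultures of the same strain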
assaySetup: S. cerevisiae rad50 strain growth inhibition; at 50.0 µM
Compounds without any hit were thinned out: in the full panel of roughly 79,000, 15% have a hit. The source made the active and inactive calls. Rule as the data show it: active = growth inhibition above about 70%; inactive = the rest.
Please reply with one of these outcomes: active, inactive

These recorded examples may help you get a feel for the data.
COc1ccc2ccc(OC)c(C=O)c2c1    active
COc1ccc(/C=C2\CCC/C(=C\c3ccc(OC)cc3)C2=O)cc1    inactive
CC(=O)c1c(O)c2ccc(Cl)cc2[nH]c1=O    active

# ---- query compound ----
Challenge: Give the logged outcome of this assay for the following compound: `CSc1nc(SC)c2cn(Cc3ccccc3)nc2n1`
Response given: inactive

----------
testName: NCI Yeast Anticancer Drug Screen. Data for the bub3 strain (AID 167)
assaySetup: S. cerevisiae bub3 mutant strain, at 5.0 µM (retest, dose inferred, filed as 0.5), hits give high values
This is part of a sample that, as a whole, favours compounds with a hit. Of some 79,000 tested, about 15% had one in any assay.
measuredAttribute: growth inhibition (%)
Unit % implied. Number only.

# count of solved cases: 3
NC1=NC2=C(CCCC2)C(c2cccs2)S1 (stereo unspecified)    38
COC12C(COC(N)=O)C3=C(C(=O)C(C)=C(N)C3=O)N1CC1C2N1C(=O)/C=C/c1ccccc1 (stereo unspecified)    2
CCCCc1ccc(Nc2nc(N)c3[nH]cnc3n2)cc1    16

Challenge: Reported growth inhibition for `C1=C(c2ccccc2)[P+](c2ccccc2)(c2ccccc2)C=C(c2ccccc2)[P+]1(c1ccccc1)c1ccccc1` : what is it?
Response given: 83

Challenge: Reported growth inhibition for `CCCCCCCCCCCCCCSC(=N)N` : what is it?
Response given: 100

Challenge: Reported growth inhibition for `N/C(=N\OC(=O)Nc1ccccc1)c1ccccc1` : what is it?
Response given: -3

Challenge: Reported growth inhibition for `Nc1ccc(Cl)c2cccnc12` : what is it?
Response given: 0

----------
testName: NCI Yeast Anticancer Drug Screen. Data for the cln2 rad14 strain (AID 165);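 also: 0% = growth equal to vehicle treated cultures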
assaySetup: S. cerevisiae cln2 rad14 strain, at 50.0 µM (retest, dose inferred, filed as 5.0)
Compounds without any hit were thinned out: in the full panel of roughly 79,000, 15% have a hit. Active and inactive are the calls of the source. No stated cut-off is given here; in the data, active means growth inhibition above about 70%; inactive means the rest.
Please reply with one of these outcomes: active, inactive

These recorded examples may help you get a feel for the data.
N=C(N)SCc1nc(-c2ccc(Cl)cc2)no1    inactive
CN(CCC1CCCCC1)CCC1CCCCC1    active
O=c1[nH]c(CN2CCCCC2)nn1-c1ccccc1    inactive

Challenge: Give the logged outcome of this assay for the following compound: `CC(=O)CC(=O)OCc1ccccc1`
Response given: active

Challenge: Give the logged outcome of this assay for the following compound: `COc1cccc(/C=C2/Sc3scc(-c4ccccc4)[n+]3C2=O)c1O`
Response given: inactive

Challenge: Give the logged outcome of this assay for the following compound: `N=Nc1c(OC(=O)Nc2ccccc2)[nH]c2ccccc12`
Response given: inactive

Challenge: Give the logged outcome of this assay for the following compound: `[C](#[C][Sn]([c]1ccccc1)([c]1ccccc1)[c]1ccccc1)[Sn]([c]1ccccc1)([c]1ccccc1)[c]1ccccc1`
Response given: active

Challenge: Give the logged outcome of this assay for the following compound: `COc1cc2c(cc1OC)-c1nc(Nc3ccccc3)sc1CC2`
Response given: active

Challenge: Give the logged outcome of this assay for the following compound: `COc1ccc2c(c1)CCc1c(-c3noc4c3CCc3cc(OC)ccc3-4)noc1-2`
Response given: inactive

Challenge: Give the logged outcome of this assay for the following compound: `CC(C)OC(=O)c1ccc(NC(=O)CCl)cc1`
Response given: inactive

Challenge: Give the logged outcome of this assay for the following compound: `O=C1OCCN1/N=C/c1ccc([N+](=O)[O-])o1`
Response given: inactive

Challenge: Give the logged outcome of this assay for the following compound: CC(C)(C)c1cc(C2c3cc4c(cc3OC(O)(CO)C2C(=O)O)OCO4)cc(C(C)(C)C)c1O (stereo not given) (tested in a mixture with another compound)
Response given: inactive

Challenge: Give the logged outcome of this assay for the following compound: `O=C(c1ccc(Cl)cc1)c1ccc(OCCCOc2ccc(C(=O)c3ccc(Cl)cc3)cc2)cc1`
Response given: inactive

Challenge: Give the logged outcome of this assay for the following compound: COc1ccc2c(c1)CC1c3c(ccc(OC)c3O)CC2N1C (stereo not given)
Response given: inactive

Challenge: Give the logged outcome of this assay for the following compound: OC1CCCCC1Cc1ccc(Cl)cc1 (stereo not given)
Response given: inactive

----------
testName: NCI Yeast Anticancer Drug Screen. Data for the cln2 rad14 strain (AID 165);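 also: 0% = growth equal to vehicle treated cultures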
assaySetup: S. cerevisiae cln2 rad14 strain, at 5.0 µM (retest, dose inferred, filed as 0.5)
Compounds without any hit were thinned out: in the full panel of roughly 79,000, 15% have a hit. Calls of active or inactive are those of the source. No stated cut-off is given here; in the data, active means growth inhibition above about 70%; inactive means the rest.
Please reply with one of these outcomes: TRUE for active, FALSE for inactive

These recorded examples may help you get a feel for the data.
O=C(O)CSc1nnc2c3ccccc3c3ccccc3c2n1    FALSE
NNC(=O)c1ccc(N)cc1O    FALSE
CC1(C)CC(=O)C(C=NC(=S)c2ccccc2)=C(O)C1    FALSE
FC(F)(F)c1[nH]nc(-c2ccc(Cl)cc2)c1N=NN1CCOCC1    TRUE

# ---- query compound ----
Challenge: Give the logged outcome of this assay for the following compound: `COc1ncc(Br)cc1C(=O)NCCc1ccc(S(=O)(=O)NC(=O)NC2CCCCC2)cc1`
Response given: FALSE

----------
testName: NCI Yeast Anticancer Drug Screen. Data for the rad50 strain (AID 155);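 also: 0% = growth of vehicle-only cultures of the same strain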
assaySetup: S. cerevisiae rad50 strain growth inhibition; at 50.0 µM
Compounds without any hit were thinned out: in the full panel of roughly 79,000, 15% have a hit. Activity calls are given as the source filed them. Cut-off read from the data, not from the text of the source: active = growth inhibition above about 70%; inactive = the rest.
Please reply with one of these outcomes: active, inactive

COc1cc(/C=C/C2=C(C)C(=O)CC(c3cc(OC)c(OC)c(OC)c3)C2C)cc(OC)c1OC (stereo not drawn)    inactive
CCOC(=O)c1ccc(N=Cc2cc(Cl)cc(Cl)c2O)cc1    active
Cc1cc(Cl)ccc1C(=O)c1ccc2ccccc2c1C(=O)O    active
Cc1cccc2c(CC(=O)O)c[nH]c12    active
O=c1oc2ccccc2c(O)c1/C=N/C(=S)NCCc1ccccc1    inactive
COC(=O)C1=Cc2cc3c(cc2[C@H](c2ccc4c(c2)OCO4)C1C(=O)OC)OCO3 (stereo partly drawn)    inactive

Challenge: Give the logged outcome of this assay for the following molecule: `CCCCC#CC(=O)OCCC`
Response given: inactive

Challenge: Give the logged outcome of this assay for the following molecule: CC(=O)OC1OC2C(NC(=O)OC(C)(C)C)C1CC2(OCc1ccccc1)OCc1ccccc1 (stereo not drawn)
Response given: inactive

----------
testName: NCI Yeast Anticancer Drug Screen. Data for the bub3 strain (AID 167)
assaySetup: S. cerevisiae bub3 mutant strain, at 50.0 µM, hits give high values
About 79,000 compounds went through this panel and 15% of them were active in at least one assay; those are over-represented in the sample as a whole.
Threshold check on growth inhibition: at or above 40% gives class 1, strictly below gives class 0.

These recorded examples may help you get a feel for the data.
O=c1[nH]c2cc(Cl)ccc2nc1/C=C(\O)c1ccccn1    class 1
[Cl][Sn]1([Cl])[CH2]CC[CH2][Sn]([Cl])([Cl])[CH2]CC[CH2][Sn]([Cl])([Cl])[CH2]CC[CH2][Sn]([Cl])([Cl])[CH2]CC[CH2]1    class 1
CN(C)C(=S)SSSSC(=S)N(C)C    class 1

Challenge: Say whether CCCCCCCC(=O)N1CCCCC1CC (stereo unspecified) shows growth inhibition of 40% or more.
Response given: class 0

Challenge: Say whether `O=S(=O)(Sc1ccccc1)c1ccccc1` shows growth inhibition of 40% or more.
Response given: class 1

Challenge: Say whether COc1ccc(/C(=C/CN2CCC3CCC(C3)C2)c2ccccc2)cc1 (stereo unspecified) shows growth inhibition of 40% or more.
Response given: class 0

Challenge: Say whether `COc1ccc2cc(CNCCCCCCCCNCc3ccc4cc(OC)ccc4c3)ccc2c1` shows growth inhibition of 40% or more.
Response given: class 1

Challenge: Say whether `CN(C)CCCNc1cc(O)c2c(c1O)C(=O)c1ccccc1C2=O` shows growth inhibition of 40% or more.
Response given: class 1

----------
testName: NCI Yeast Anticancer Drug Screen. Data for the mlh1 rad18 strain (AID 175)
assaySetup: S. cerevisiae mlh1 rad18 strain growth inhibition; at 50.0 µM; hits give high values
Description: Growth inhibition of yeast strains with defined genetic alterations is measured as a screen for potential anti-cancer activity. Selected strains with alterations in DNA damage repair or cell cycle control were exposed to compounds and growth inhibition was measured relative to vehicle treated controls. The strain used in this assay is mlh1 rad18
Compounds without any hit were thinned out: in the full panel of roughly 79,000, 15% have a hit.
The compounds listed here are annotated with their growth inhibition.
Unit % implied. Number only.

Challenge: Reported growth inhibition for `O=C(Nc1ccccc1)OC1CCCC1` : what is it?
Response given: 82.8
